The reported numbers originate from patent US20240116985A1.

Biological target: full-length beta-Catenin (Uniprot ID P35222) (Homo sapiens)
Construct: 10 nM full-length beta-Catenin (Uniprot ID P35222)
Sequence (P35222 whole entry): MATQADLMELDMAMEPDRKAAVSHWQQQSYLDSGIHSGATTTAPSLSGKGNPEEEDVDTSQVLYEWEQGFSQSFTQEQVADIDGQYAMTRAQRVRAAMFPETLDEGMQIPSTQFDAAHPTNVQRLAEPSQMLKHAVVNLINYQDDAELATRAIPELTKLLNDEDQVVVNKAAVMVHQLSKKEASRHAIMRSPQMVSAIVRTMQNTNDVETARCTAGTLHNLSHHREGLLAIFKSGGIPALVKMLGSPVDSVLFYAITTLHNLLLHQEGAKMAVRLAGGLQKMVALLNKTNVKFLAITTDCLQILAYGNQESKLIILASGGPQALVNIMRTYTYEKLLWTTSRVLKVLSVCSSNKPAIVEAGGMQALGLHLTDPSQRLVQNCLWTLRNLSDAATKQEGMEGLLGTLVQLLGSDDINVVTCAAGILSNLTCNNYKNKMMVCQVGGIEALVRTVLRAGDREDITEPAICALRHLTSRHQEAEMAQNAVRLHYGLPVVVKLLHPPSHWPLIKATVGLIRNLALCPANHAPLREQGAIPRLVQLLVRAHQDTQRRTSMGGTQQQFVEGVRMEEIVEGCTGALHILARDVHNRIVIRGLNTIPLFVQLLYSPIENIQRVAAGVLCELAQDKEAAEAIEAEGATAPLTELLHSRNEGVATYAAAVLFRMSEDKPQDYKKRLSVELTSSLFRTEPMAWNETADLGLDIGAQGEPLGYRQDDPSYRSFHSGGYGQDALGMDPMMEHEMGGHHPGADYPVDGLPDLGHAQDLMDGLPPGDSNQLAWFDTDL
Assay: Fluorescence polarization IC50 (beta-catenin / 5FAM-TCF4 10-53 competition)
Assay type: binding
Conditions: read-out: beta-Catenin FP IC50
pIC50: −log10 of the molar value.

- molecule: "CC(=O)N1CCC[C@]12CC=CCCCC1(CCCC=CCCCOC(=O)N3CC[C@@](C(=O)N[C@@H](Cc4ccsc4)C(=O)N[C@@H](Cc4csc5ccccc45)C(=O)N[C@@H](CCC(N)=O)C(N)=O)(C3)NC(=O)[C@H](CC(N)=O)NC(=O)[C@H](Cc3ccccc3)NC(=O)[C@H](C)NC(=O)[C@H](C)NC(=O)[C@H](Cc3cccc(C(=O)O)c3)NC(=O)[C@H](CC(=O)O)NC1=O)NC(=O)[C@H](CC(C)(C)C)NC(=O)[C@H](CC(=O)O)NC2=O (some centres unmarked) [I-976]"
  pIC50: 6.40
- molecule: "CC(=O)N1CCC[C@]12CC=CCCCC1(CCCC=CCCCOC(=O)N3CC[C@@](C(=O)N[C@@H](Cc4ccccc4Cl)C(=O)N[C@@H](Cc4csc5ccccc45)C(=O)N[C@@H](CO)C(N)=O)(C3)NC(=O)[C@H](CC(C)C)NC(=O)[C@H](Cc3ccccc3)NC(=O)[C@H](C)NC(=O)[C@H](C)NC(=O)[C@H](CC(=O)O)NC(=O)[C@H](CC(=O)O)NC1=O)NC(=O)[C@H](CC1CCCCC1)NC(=O)[C@H](CC(=O)O)NC2=O (some centres unmarked)"
  pIC50: 7.40

----------
Assay: CHI Log D procedure
Assay type: physicochemical
Conditions: pH 7.4
property.measured: CHI Log D

- compound: "CC(=O)N1CCC[C@]12CC=CCCCC1(CCCC=CCCCOC(=O)N3CC[C@@](C(=O)N[C@@H](Cc4ccsc4)C(=O)N[C@@H](Cc4csc5ccccc45)C(=O)N[C@@H](CCC(N)=O)C(N)=O)(C3)NC(=O)[C@H](CC(C)C)NC(=O)[C@H](Cc3ccccc3)NC(=O)[C@H](C)NC(=O)[C@H](C)NC(=O)[C@H](CN(CC(=O)O)CC(F)(F)F)NC(=O)[C@H](CC(=O)O)NC1=O)NC(=O)[C@H](CC(C)(C)C)NC(=O)[C@H](CC(=O)O)NC2=O (some centres unmarked)"
  numeric.result: 2.393
- compound: "CC(=O)N1CCC[C@]12CC=CCCCC1(CCCC=CCCCCOC(=O)N3CC[C@@](C(=O)N[C@@H](Cc4ccsc4)C(=O)N[C@@H](Cc4csc5ccccc45)C(=O)N[C@@H](Cc4c[nH]cn4)C(N)=O)(C3)NC(=O)[C@H](CC(N)=O)NC(=O)[C@H](Cc3ccccc3)NC(=O)[C@H](C)NC(=O)[C@H](C)NC(=O)[C@H](CC(=O)O)NC(=O)[C@H](CC(=O)O)NC1=O)NC(=O)[C@H](CC(C)(C)C)NC(=O)[C@H](CC(=O)O)NC2=O (some centres unmarked) [I-776]"
  numeric.result: 2.137

----------
pIC50 values, listed per item
Target: full-length beta-Catenin (Uniprot ID P35222) (Homo sapiens)
Construct: 10 nM full-length beta-Catenin (Uniprot ID P35222)
Test: Fluorescence polarization IC50 (beta-catenin / 5FAM-TCF4 10-53 competition)
Assay type: binding
Conditions: fluorescence polarization; read-out: beta-Catenin FP IC50
pIC50: −log10 of the molar value.
property.measured: pIC50

- compound: "CC(=O)N1CCC[C@]12CC=CCCCC1(CCCC=CCCCOC(=O)N3CC[C@@](C(=O)N[C@@H](Cc4ccccc4Cl)C(=O)N[C@@H](Cc4csc5ccccc45)C(=O)N[C@@H](CCC(N)=O)C(N)=O)(C3)NC(=O)[C@H](Cc3ccccc3)NC(=O)[C@H](Cc3ccccc3)NC(=O)[C@H](C)NC(=O)[C@H](C)NC(=O)[C@H](CC(=O)O)NC(=O)[C@H](CC(=O)O)NC1=O)NC(=O)[C@H](CC(C)(C)C)NC(=O)[C@H](CC(=O)O)NC2=O (stereo partly drawn) [I-1366]"
  numeric.result: 8.15
- compound: "CC(=O)N1CCC[C@]12CC=CCCCC1(CCCC=CCCCOC(=O)N3CC[C@@](C(=O)N[C@@H](Cc4ccccc4C(F)(F)F)C(=O)N[C@@H](Cc4csc5cccc(Cl)c45)C(=O)N[C@@H](C)C(N)=O)(C3)NC(=O)[C@H](CC(C)C)NC(=O)[C@H](Cc3ccccc3)NC(=O)[C@H](C)NC(=O)[C@H](CCC(N)=O)NC(=O)[C@H](Cc3cccc(C(=O)O)c3)NC(=O)[C@H](CC(=O)O)NC1=O)NC(=O)[C@H](CC(C)(C)C)NC(=O)[C@H](CC(=O)O)NC2=O (stereo partly drawn) [I-2491]"
  numeric.result: 7.31
- compound: "CC(=O)N1CCC[C@]12CC=CCCCC1(CCCC=CCCCCCC[C@@](C)(C(=O)N[C@@H](Cc3ccccc3Br)C(=O)N[C@@H](Cc3csc4ccccc34)C(=O)N[C@@H](CCC(N)=O)C(N)=O)NC(=O)[C@H](CC(N)=O)NC(=O)[C@H](Cc3ccccc3)NC(=O)[C@H](C)NC(=O)[C@H](C)NC(=O)[C@H](CCC(=O)O)NC(=O)[C@H](CC(=O)O)NC1=O)NC(=O)[C@H](C)NC(=O)[C@H](CC(=O)O)NC2=O (stereo partly drawn) [I-436]"
  numeric.result: 7.25
- compound: "CC(=O)N1CCC[C@]12CC=CCCCC1(CCCC=CCCCOC(=O)N3CC[C@@](C(=O)N[C@@H](Cc4cccnc4)C(=O)N[C@@H](Cc4csc5ccccc45)C(=O)N[C@@H](CCC(N)=O)C(N)=O)(C3)NC(=O)[C@H](CC(C)C)NC(=O)[C@H](Cc3ccccc3)NC(=O)[C@H](C)NC(=O)[C@H](C)NC(=O)[C@H](CN(CC(=O)O)CC(F)(F)F)NC(=O)[C@H](CC(=O)O)NC1=O)NC(=O)[C@H](CC(C)(C)C)NC(=O)[C@H](CC(=O)O)NC2=O (stereo partly drawn) [I-1701]"
  numeric.result: 7.60
- compound: "CCCC[C@@H]1NC(=O)[C@H](CC(=O)O)NC(=O)[C@]2(CC=CCCCC3(CCCC=CCCCCCC[C@@](C)(C(=O)N[C@@H](Cc4ccccc4)C(=O)N[C@@H](Cc4csc5ccccc45)C(=O)N[C@@H](CCC(N)=O)C(N)=O)NC(=O)[C@H](CCC(N)=O)NC(=O)[C@H](Cc4ccccc4)NC(=O)[C@H](C)NC(=O)[C@H](C)NC(=O)[C@H](CCC(=O)O)NC(=O)[C@H](CC(=O)O)NC3=O)NC1=O)CCCN2C(C)=O (stereo partly drawn) [I-1522]"
  numeric.result: 8.22
- compound: "CC(=O)N1CCC[C@]12CC=CCCCC1(CCCC=CCCCOC(=O)N3CC[C@@](C(=O)N[C@@H](Cc4ccccc4C(F)(F)F)C(=O)N[C@@H](Cc4csc5ccccc45)C(=O)N[C@@H](CCC(N)=O)C(=O)N[C@@H](CC(C)C)C(=O)N[C@@H](CO)C(N)=O)(C3)NC(=O)[C@H](CC(C)C)NC(=O)[C@H](Cc3ccccc3)NC(=O)[C@H](C)NC(=O)[C@H](C)NC(=O)[C@H](Cc3cccc(C(=O)O)c3)NC(=O)[C@H](CC(=O)O)NC1=O)NC(=O)[C@H](CC(C)(C)C)NC(=O)[C@H](CC(=O)O)NC2=O (stereo partly drawn) [I-2384]"
  numeric.result: 8.30
- compound: "CC(=O)N1CCC[C@]12CC=CCCCC1(CCCC=CCCCOC(=O)N3CC[C@@](C(=O)N[C@@H](Cc4cccc(Br)c4)C(=O)N[C@@H](CC4CCC4)C(=O)N[C@@H](CCC(N)=O)C(N)=O)(C3)NC(=O)[C@H](CC(C)C)NC(=O)[C@H](Cc3ccccc3)NC(=O)[C@H](C)NC(=O)[C@H](C)NC(=O)[C@H](Cc3cccc(C(=O)O)c3)NC(=O)[C@H](CC(=O)O)NC1=O)NC(=O)[C@H](CC(C)(C)C)NC(=O)[C@H](CC(=O)O)NC2=O (stereo partly drawn) [I-2154]"
  numeric.result: 5.02
- compound: "CC(=O)N1CCC[C@]12CC=CCCCC1(CCCC=CCCCOC(=O)N3CC[C@@](C(=O)N[C@@H](Cc4ccsc4)C(=O)N[C@@H](Cc4csc5ccccc45)C(=O)N[C@@H](Cc4ccccc4)C(N)=O)(C3)NC(=O)[C@H](CC(C)C)NC(=O)[C@H](Cc3ccccc3)NC(=O)[C@H](C)NC(=O)[C@H](C)NC(=O)[C@H](CC(=O)O)NC(=O)[C@H](CC(=O)O)NC1=O)NC(=O)[C@H](CC(C)(C)C)NC(=O)[C@H](CC(=O)O)NC2=O (stereo partly drawn) [I-1496]"
  numeric.result: 7.29
- compound: "CC(=O)N1CCC[C@]12CC=CCCCC1(CCCC=CCCCOC(=O)N3CC[C@@](C(=O)N[C@@H](Cc4ccccc4C(F)(F)F)C(=O)N[C@@H](Cc4csc5ccccc45)C(=O)N[C@H](C)C(N)=O)(C3)NC(=O)[C@H](CC(C)C)NC(=O)[C@H](Cc3ccccc3)NC(=O)[C@H](C)NC(=O)[C@H](C)NC(=O)[C@H](Cc3cccc(C(=O)O)c3)NC(=O)[C@H](CC(=O)O)NC1=O)NC(=O)[C@H](CC(C)(C)C)NC(=O)[C@H](CC(=O)O)NC2=O (stereo partly drawn) [I-2091]"
  numeric.result: 7.31
